SYSTEM NAME: CSNK1D (Homo sapiens)
Construct: purchased in-house thermal shift (DSF) kinase panel (SGC Frankfurt); Promega NanoBRET for AURKA/B/C
Sequence (P48730 1-294): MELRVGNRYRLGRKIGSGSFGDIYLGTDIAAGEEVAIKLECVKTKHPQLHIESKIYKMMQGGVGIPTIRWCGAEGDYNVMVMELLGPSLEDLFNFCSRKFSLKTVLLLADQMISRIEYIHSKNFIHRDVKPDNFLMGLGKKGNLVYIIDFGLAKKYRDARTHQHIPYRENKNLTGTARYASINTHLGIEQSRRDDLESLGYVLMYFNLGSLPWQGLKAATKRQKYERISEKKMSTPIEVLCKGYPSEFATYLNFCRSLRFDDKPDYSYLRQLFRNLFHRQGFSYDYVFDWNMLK
EXPERIMENT DESCRIPTION: Thermal shift assay
Assay type: binding
CONDITION INFO: compound 10 µM; n = 3; read-out: ΔTm CSNK1D
Provide the recorded ΔTm at 10 µM for the entries that follow.
Please respond with the number in °C and leave the unit unwritten.

Ask: What value of measured ΔTm at 10 µM is listed for CCN1CCN(C(=O)Cc2ccc(Nc3ncc(F)c(Nc4ccc(C(=O)Nc5ccccc5)cc4)n3)cc2)CC1 ?
Reply: 0.2

Ask: What value of measured ΔTm at 10 µM is listed for NC(=O)Cc1ccc(Nc2ncc(F)c(Nc3ccc(C(=O)Nc4ccccc4Cl)cc3)n2)cc1 ?
Reply: 0

Ask: What value of measured ΔTm at 10 µM is listed for CCN1CCN(C(=O)Cc2ccc(Nc3ncc(F)c(Nc4ccc(C(=O)O)cc4)n3)cc2)CC1 ?
Reply: 0.2

Ask: What value of measured ΔTm at 10 µM is listed for O=C(Cc1ccc(Nc2ncc(F)c(Nc3ccc(C(=O)Nc4ccccc4Cl)cc3)n2)cc1)NCCN1CCOCC1 ?
Reply: 0

====

SYSTEM NAME: CAMKK2 (Homo sapiens, UniProt Q96RR4)
Construct: purchased in-house thermal shift (DSF) kinase panel (SGC Frankfurt); Promega NanoBRET for AURKA/B/C
Sequence (Q96RR4 161-449): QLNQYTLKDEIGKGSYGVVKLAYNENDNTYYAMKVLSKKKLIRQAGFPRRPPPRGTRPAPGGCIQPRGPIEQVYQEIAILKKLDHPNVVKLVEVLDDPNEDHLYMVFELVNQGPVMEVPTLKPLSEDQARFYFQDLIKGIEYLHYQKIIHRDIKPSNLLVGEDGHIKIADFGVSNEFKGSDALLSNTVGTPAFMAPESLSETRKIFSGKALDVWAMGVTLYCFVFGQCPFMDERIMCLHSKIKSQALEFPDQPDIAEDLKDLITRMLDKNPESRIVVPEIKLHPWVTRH
EXPERIMENT DESCRIPTION: Thermal shift assay
Type: binding
CONDITION INFO: compound 10 µM; n = 3; read-out: ΔTm CAMKK2
EXPERIMENTAL READOUT: ΔTm at 10 µM (°C)
Please respond with the number in °C and leave the unit unwritten.

Ask: What value of measured ΔTm at 10 µM is listed for O=C(Cc1ccc(Nc2ncc(F)c(Nc3ccc(C(=O)Nc4ccccc4Cl)cc3)n2)cc1)NCCN1CCOCC1 ?
Reply: 1.3

Ask: What value of measured ΔTm at 10 µM is listed for CCN1CCN(C(=O)Cc2ccc(Nc3ncc(F)c(Nc4ccc(C(=O)Nc5ccccc5)cc4)n3)cc2)CC1 ?
Reply: 3.1

Ask: What value of measured ΔTm at 10 µM is listed for NC(=O)Cc1ccc(Nc2ncc(F)c(Nc3ccc(C(=O)Nc4ccccc4Cl)cc3)n2)cc1 ?
Reply: 2.2

Ask: What value of measured ΔTm at 10 µM is listed for CCN1CCN(C(=O)Cc2ccc(Nc3ncc(F)c(Nc4ccc(C(=O)O)cc4)n3)cc2)CC1 ?
Reply: 1.8

====

SYSTEM NAME: BRAF (Homo sapiens, UniProt P15056)
Construct: purchased in-house thermal shift (DSF) kinase panel (SGC Frankfurt); Promega NanoBRET for AURKA/B/C
Sequence (P15056 448-723): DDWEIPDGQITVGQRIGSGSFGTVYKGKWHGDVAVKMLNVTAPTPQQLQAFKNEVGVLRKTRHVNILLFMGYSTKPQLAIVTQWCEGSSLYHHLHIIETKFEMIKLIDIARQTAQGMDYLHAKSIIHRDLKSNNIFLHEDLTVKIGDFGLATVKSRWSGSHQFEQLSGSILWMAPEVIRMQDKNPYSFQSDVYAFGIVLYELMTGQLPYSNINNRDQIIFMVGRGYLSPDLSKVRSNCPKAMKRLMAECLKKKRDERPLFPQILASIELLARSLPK
EXPERIMENT DESCRIPTION: Thermal shift assay
Format: binding
CONDITION INFO: compound 10 µM; n = 3; read-out: ΔTm BRAF
EXPERIMENTAL READOUT: ΔTm at 10 µM (°C)
Please respond with the number in °C and leave the unit unwritten.

Ask: What value of measured ΔTm at 10 µM is listed for CCN1CCN(C(=O)Cc2ccc(Nc3ncc(F)c(Nc4ccc(C(=O)O)cc4)n3)cc2)CC1 ?
Reply: 0.7

Ask: What value of measured ΔTm at 10 µM is listed for NC(=O)Cc1ccc(Nc2ncc(F)c(Nc3ccc(C(=O)Nc4ccccc4Cl)cc3)n2)cc1 ?
Reply: 0.5

Ask: What value of measured ΔTm at 10 µM is listed for O=C(Cc1ccc(Nc2ncc(F)c(Nc3ccc(C(=O)Nc4ccccc4Cl)cc3)n2)cc1)NCCN1CCOCC1 ?
Reply: 0.8

Ask: What value of measured ΔTm at 10 µM is listed for CCN1CCN(C(=O)Cc2ccc(Nc3ncc(F)c(Nc4ccc(C(=O)Nc5ccccc5)cc4)n3)cc2)CC1 ?
Reply: 1.8
